# System: Streptococcus sp.
# Assay name: In vitro antibacterial evaluation: minimum inhibitory concentration (MIC), broth dilution method
# Type: cell-based
# Study conditions: broth dilution, 18 hours at 35° C.
Below: a set of entries, each annotated with reported MIC Streptococcus pneumoniae (GC 4565).
Measure: MIC Streptococcus pneumoniae (GC 4565)

• CC(c1ccccc1)C1NC(=O)CNC(=O)C(CO)NC(=O)C(C(O)C2CNC(=N)N2C2OC(CO)C(O)C(O)C2O)NC(=O)C(C(O)C2CNC(=N)N2)NC(=O)C(Cc2ccc3oc(-c4ccc(Br)cc4)nc3c2)NC1=O (stereo not drawn) [Example 27] = 16 µg/mL
• CC(c1ccccc1)C1NC(=O)CNC(=O)C(CO)NC(=O)C(C(O)C2CNC(=N)N2C2OC(CO)C(O)C(O)C2O)NC(=O)C(C(O)C2CNC(=N)N2)NC(=O)C(Cc2ccc3oc(-c4ccc(C(C)(C)C)cc4)nc3c2)NC1=O (stereo not drawn) [Example 32] = 16 µg/mL
• CC(c1ccccc1)C1NC(=O)CNC(=O)C(CO)NC(=O)C(C(O)C2CNC(=N)N2C2OC(CO)C(O)C(O)C2O)NC(=O)C(C(O)C2CNC(=N)N2)NC(=O)C(Cc2ccc3oc(SCc4ccccc4)nc3c2)NC1=O (stereo not drawn) [Example 45] = 32 µg/mL

---

# System: Staphylococcus sp.
# Assay name: In vitro antibacterial evaluation: minimum inhibitory concentration (MIC), broth dilution method
# Assay type: cell-based
# Study conditions: Staphylococcus aureus (GC 4544); 18 hours at 35° C.
Recorded measurements of MIC Staphylococcus aureus (GC 4544), one per entry
Measure: MIC Staphylococcus aureus (GC 4544) (µg/mL)

* Cc1ccc(COCC2OC(OC3C(CO)OC(Oc4ccc(CC5NC(=O)C(C(C)c6ccccc6)NC(=O)CNC(=O)C(CO)NC(=O)C(C(O)C6CNC(=N)N6C6OC(CO)C(O)C(O)C6O)NC(=O)C(C(O)C6CNC(=N)N6)NC5=O)cc4)C(O)C3O)C(O)C(O)C2O)cc1 (stereo not drawn) | 2
* CC(C)CC(=O)OC1C(O)C(CO)OC(OC2C(CO)OC(Oc3ccc(CC4NC(=O)C(C(C)c5cccc(F)c5)NC(=O)CNC(=O)C(CO)NC(=O)C(C(O)C5CNC(=N)N5C5OC(CO)C(O)C(O)C5O)NC(=O)C(C(O)C5CNC(=N)N5)NC4=O)cc3)C(O)C2O)C1O (stereo not drawn) [Example 264b] | 8
* CCOc1cc(COCC2OC(OC3C(CO)OC(Oc4ccc(CC5NC(=O)C(C(C)c6ccccc6)NC(=O)CNC(=O)C(CO)NC(=O)C(C(O)C6CNC(=N)N6C6OC(CO)C(O)C(O)C6O)NC(=O)C(C(O)C6CNC(=N)N6)NC5=O)cc4)C(O)C3O)C(O)C(O)C2O)ccc1OC (stereo not drawn) | 8
* COc1ccc(COCC2OC(OC3C(CO)OC(Oc4ccc(CC5NC(=O)C(C(C)c6ccccc6)NC(=O)CNC(=O)C(CO)NC(=O)C(C(O)C6CNC(=N)N6C6OC(CO)C(O)C(O)C6O)NC(=O)C(C(O)C6CNC(=N)N6)NC5=O)cc4)C(O)C3O)C(O)C(O)C2O)cc1OCc1ccccc1 (stereo not drawn) | 2

---

Measured MIC Staphylococcus aureus (GC 3053) by item
# Tested on: Staphylococcus sp.
# Assay name: In vitro antibacterial evaluation: minimum inhibitory concentration (MIC), broth dilution method
# Type: cell-based
# Study conditions: strain GC 3053
Measure: MIC Staphylococcus aureus (GC 3053) (µg/mL)

- CC(c1ccccc1)C1NC(=O)CNC(=O)C(CO)NC(=O)C(C(O)C2CNC(=N)N2C2OC(CO)C(O)C(O)C2O)NC(=O)C(C(O)C2CNC(=N)N2)NC(=O)C(Cc2ccc(OC3OC(CO)C(OC4OC5COC(CC6CCCCC6)OC5C(O)C4O)C(O)C3O)cc2)NC1=O (stereo not shown): 2
- CC(C)CC(=O)OC1C(O)C(OC2C(CO)OC(Oc3ccc(CC4NC(=O)C(C(C)c5ccccc5)NC(=O)CNC(=O)C(CO)NC(=O)C(C(O)C5CNC(=N)N5C5OC(CO)C(O)C(O)C5O)NC(=O)C(C(O)C5CNC(=N)N5)NC4=O)cc3)C(O)C2O)OC2COC3(OC21)C1CC2CC(C1)CC3C2 (stereo not shown): 4
- CC(c1ccccc1)C1NC(=O)CNC(=O)C(CO)NC(=O)C(C(O)C2CNC(=N)N2C2OC(CO)C(O)C(O)C2O)NC(=O)C(C(O)C2CNC(=N)N2)NC(=O)C(Cc2ccc(OC3OC(CO)C(OC4OC5COC6(OC5C(O)C4O)C4CCCC6CCC4)C(O)C3O)cc2)NC1=O (stereo not shown): 4
- CC(c1ccccc1)C1NC(=O)CNC(=O)C(CO)NC(=O)C(C(O)C2CNC(=N)N2C2OC(CO)C(O)C(O)C2O)NC(=O)C(C(O)C2CNC(=N)N2)NC(=O)C(Cc2ccc(OC3OC(CO)C(OC4OC5COC(CC6CCN(C(=O)OCc7ccccc7)CC6)OC5C(O)C4O)C(O)C3O)cc2)NC1=O (stereo not shown): 1
- CC(c1ccccc1)C1NC(=O)CNC(=O)C(CO)NC(=O)C(C(O)C2CNC(=N)N2C2OC(CO)C(O)C(O)C2O)NC(=O)C(C(O)C2CNC(=N)N2)NC(=O)C(Cc2ccc(OC3OC(CO)C(OC4OC5COC(C6CC=CCC6)OC5C(O)C4O)C(O)C3O)cc2)NC1=O (stereo not shown): 1
- CC(C)=CCCC1OCC2OC(OC3C(CO)OC(Oc4ccc(CC5NC(=O)C(C(C)c6ccccc6)NC(=O)CNC(=O)C(CO)NC(=O)C(C(O)C6CNC(=N)N6C6OC(CO)C(O)C(O)C6O)NC(=O)C(C(O)C6CNC(=N)N6)NC5=O)cc4)C(O)C3O)C(O)C(O)C2O1 (stereo not shown): 8
- N=C1NCC(C(O)C2NC(=O)C(Cc3ccc(OC4OC(CO)C(OC5OC6COC7(OC6C6OC8(OC56)C5CC6CC(C5)CC8C6)C5CC6CC(C5)CC7C6)C(O)C4O)cc3)NC(=O)C(CC3CCCCC3)NC(=O)CNC(=O)C(CO)NC(=O)C(C(O)C3CNC(=N)N3C3OC(CO)C(O)C(O)C3O)NC2=O)N1 (stereo not shown) [Example 106b]: 8

---

# System: Staphylococcus sp.
# Assay name: In vitro antibacterial evaluation: minimum inhibitory concentration (MIC), broth dilution method
# Type: cell-based
# Study conditions: strain GC 4551
Measure: MIC Coagulase Negative Staphylococcus (GC 4551) (µg/mL)

- CC(c1ccccc1)C1NC(=O)CNC(=O)C(CO)NC(=O)C(C(O)C2CNC(=N)N2C2OC(CO)C(O)C(O)C2O)NC(=O)C(C(O)C2CNC(=N)N2)NC(=O)C(Cc2ccc(OC3OC(CO)C(OC4OC5COC6(OC5C(O)C4O)C(C)CCCC6C)C(O)C3O)cc2)NC1=O (stereo not shown): 1
- CC(c1ccccc1)C1NC(=O)CNC(=O)C(CO)NC(=O)C(C(O)C2CNC(=N)N2C2OC(CO)C(O)C(O)C2O)NC(=O)C(C(O)C2CNC(=N)N2)NC(=O)C(Cc2ccc(OC3OC(CO)C(OC4OC(COC(=O)C(c5ccccc5)c5ccccc5)C(O)C(O)C4O)C(O)C3O)cc2)NC1=O (stereo not shown) [Example 96c]: 1
- CC(c1ccccc1)C1NC(=O)CNC(=O)C(CO)NC(=O)C(C(O)C2CNC(=N)N2C2OC(CO)C(O)C(O)C2O)NC(=O)C(C(O)C2CNC(=N)N2)NC(=O)C(Cc2ccc(OC3OC(CO)C(OC4OC(CO)C(O)C5OC(c6ccccc6)OC45)C(O)C3O)cc2)NC1=O (single isomer, unassigned) [Example 104a]: 32
- CC(c1ccccc1)C1NC(=O)CNC(=O)C(CO)NC(=O)C(C(O)C2CNC(=N)N2C2OC(CO)C(O)C(O)C2O)NC(=O)C(C(O)C2CNC(=N)N2)NC(=O)C(Cc2ccc(OC3OC(CO)C(OC4OC5COC6(CC7CCC6(C)C7(C)C)OC5C(O)C4O)C(O)C3O)cc2)NC1=O (stereo not shown) [Example 214]: 1

---

# Tested on: Staphylococcus sp.
# Assay name: In vitro antibacterial evaluation: minimum inhibitory concentration (MIC), broth dilution method
# Format: cell-based
# Study conditions: strain GC 4548
The label Criterion met is reserved for MIC Coagulase Negative Staphylococcus (GC 4548) strictly under 8 µg/mL; Criterion not met covers values equal to or above it.

• N=C1NCC(C(O)C2NC(=O)C(CC3CCC(OC4OC(CO)C(OC5OC6COC7(OC6C(O)C5O)C5CC6CC(C5)CC7C6)C(O)C4O)CC3)NC(=O)C(CC3CCCCC3)NC(=O)CNC(=O)C(CO)NC(=O)C(C(O)C3CNC(=N)N3C3OC(CO)C(O)C(O)C3O)NC2=O)N1 (centres unmarked) [Example 223] = Criterion not met
• CC(c1ccccc1)C1NC(=O)CNC(=O)C(CO)NC(=O)C(C(O)C2CNC(=N)N2C2OC(CO)C(O)C(O)C2O)NC(=O)C(C(O)C2CNC(=N)N2)NC(=O)C(Cc2ccc(OC3OC(CO)C(OC4OC5COC6(CCCCC6C)OC5C(O)C4O)C(O)C3O)cc2)NC1=O (centres unmarked) [Example 204] = Criterion met
• CC(c1ccccc1)C1NC(=O)CNC(=O)C(CO)NC(=O)C(C(O)C2CNC(=N)N2C2OC(CO)C(O)C(O)C2O)NC(=O)C(C(O)C2CNC(=N)N2)NC(=O)C(Cc2ccc(OC3OC(CO)C(OC4OC5COC6(CC7CCC6(C)C7(C)C)OC5C(O)C4O)C(O)C3O)cc2)NC1=O (centres unmarked) [Example 215] = Criterion met
• CC(c1ccccc1)C1NC(=O)CNC(=O)C(CO)NC(=O)C(C(O)C2CNC(=N)N2C2OC(CO)C(O)C(O)C2O)NC(=O)C(C(O)C2CNC(=N)N2)NC(=O)C(Cc2ccc(OC3OC(CO)C(OC4OC5COC(c6ccc(C(=O)c7cc(I)c(I)c(I)c7)cc6)OC5C(O)C4O)C(O)C3O)cc2)NC1=O (centres unmarked) [Example 187] = Criterion not met
• CC(c1ccccc1)C1NC(=O)CNC(=O)C(CO)NC(=O)C(C(O)C2CNC(=N)N2C2OC(CO)C(O)C(O)C2O)NC(=O)C(C(O)C2CNC(=N)N2)NC(=O)C(Cc2ccc(OC3OC(CO)C(OC4OC5COC(C6CC=CCC6)OC5C(O)C4O)C(O)C3O)cc2)NC1=O (centres unmarked) [Example 115] = Criterion met
• CC(c1ccccc1)C1NC(=O)CNC(=O)C(CO)NC(=O)C(C(O)C2CN(c3nc4ccccc4o3)C(=N)N2C2OC(CO)C(O)C(O)C2O)NC(=O)C(C(O)C2CNC(=Nc3nc4ccccc4o3)N2)NC(=O)C(Cc2ccc(OC3OC(CO)C(OC4OC5COC6(OC5C(O)C4O)C4CC5CC(C4)CC6C5)C(O)C3O)cc2)NC1=O (centres unmarked) [Example 227] = Criterion met
• CC(c1ccccc1)C1NC(=O)CNC(=O)C(CO)NC(=O)C(C(O)C2CNC(=N)N2C2OC(CO)C(O)C(O)C2O)NC(=O)C(C(O)C2CNC(=N)N2)NC(=O)C(Cc2ccc(OC3OC(CO)C(OC4OC5COC(c6cccc(Oc7cccc(C(F)(F)F)c7)c6)OC5C(O)C4O)C(O)C3O)cc2)NC1=O (centres unmarked) [Example 184] = Criterion not met
• N=C1NCC(C(O)C2NC(=O)C(Cc3ccc(OC4OC(CO)C(OC5OC6COC(c7ccccc7)OC6C(O)C5O)C(O)C4O)cc3)NC(=O)C(CC3CCCCC3)NC(=O)CNC(=O)C(CO)NC(=O)C(C(O)C3CNC(=N)N3C3OC(CO)C(O)C(O)C3O)NC2=O)N1 (centres unmarked) [Example 199] = Criterion met
• N=C1NCC(C(O)C2NC(=O)C(Cc3ccc(OC4OC(CO)C(OC5OC(CO)C(O)C6OC7(OC56)C5CC6CC(C5)CC7C6)C(O)C4O)cc3)NC(=O)C(CC3CCCCC3)NC(=O)CNC(=O)C(CO)NC(=O)C(C(O)C3CNC(=N)N3C3OC(CO)C(O)C(O)C3O)NC2=O)N1 (centres unmarked) [Example 106a] = Criterion met
• CC(C)=CCCC(C)=CCOc1ccc(C2OCC3OC(OC4C(CO)OC(Oc5ccc(CC6NC(=O)C(C(C)c7ccccc7)NC(=O)CNC(=O)C(CO)NC(=O)C(C(O)C7CNC(=N)N7C7OC(CO)C(O)C(O)C7O)NC(=O)C(C(O)C7CNC(=N)N7)NC6=O)cc5)C(O)C4O)C(O)C(O)C3O2)cc1 (centres unmarked) [Example 183] = Criterion met
• CCCC(CCC)C(=O)OCC1OC(Oc2ccc(CC3NC(=O)C(C(C)c4ccccc4)NC(=O)CNC(=O)C(CO)NC(=O)C(C(O)C4CNC(=N)N4C4OC(CO)C(O)C(O)C4O)NC(=O)C(C(O)C4CNC(=N)N4)NC3=O)cc2)C(O)C(O)C1OC1OC(CO)C(O)C(O)C1O (centres unmarked) [Example 99b] = Criterion met
• CCCCCC1OCC2OC(OC3C(CO)OC(Oc4ccc(CC5NC(=O)C(C(C)c6ccccc6)NC(=O)CNC(=O)C(CO)NC(=O)C(C(O)C6CNC(=N)N6C6OC(CO)C(O)C(O)C6O)NC(=O)C(C(O)C6CNC(=N)N6)NC5=O)cc4)C(O)C3O)C(O)C(O)C2O1 (centres unmarked) [Example 108] = Criterion met

Source of measurements: patent US8247211B2
